experimental-system: CYP1B1 (Homo sapiens)
Sequence (Q16678 1-543): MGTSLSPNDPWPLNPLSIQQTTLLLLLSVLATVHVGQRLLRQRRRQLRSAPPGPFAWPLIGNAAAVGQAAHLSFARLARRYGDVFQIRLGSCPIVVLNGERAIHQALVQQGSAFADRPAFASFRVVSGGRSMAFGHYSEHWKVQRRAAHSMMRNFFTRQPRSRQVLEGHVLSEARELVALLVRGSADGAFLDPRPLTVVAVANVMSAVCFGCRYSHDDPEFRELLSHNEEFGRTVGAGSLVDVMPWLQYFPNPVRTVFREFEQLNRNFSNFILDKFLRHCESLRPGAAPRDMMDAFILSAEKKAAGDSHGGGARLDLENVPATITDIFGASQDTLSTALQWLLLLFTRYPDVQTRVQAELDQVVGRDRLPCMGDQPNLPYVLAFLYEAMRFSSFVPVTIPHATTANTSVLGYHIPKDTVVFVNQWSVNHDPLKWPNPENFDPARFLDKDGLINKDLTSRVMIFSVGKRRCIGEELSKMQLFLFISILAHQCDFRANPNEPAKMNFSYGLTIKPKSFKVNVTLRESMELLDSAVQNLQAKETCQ
assay-protocol: Recombinant CYP1B1 Supersomes EROD activity
endpoint: IC50 (nM)
Please state the figure in nM; there is no need to write the unit.

What does the record list as IC50 for CC1=C(CC(=O)Oc2ccc(-c3cc(=S)ss3)cc2)c2cc(F)ccc2/C1=C\c1ccc([S+](C)[O-])cc1 (stereo not shown) ?
230

* * *

experimental-system: CYP1A1 (Homo sapiens, UniProt P04798)
Sequence (P04798 whole entry): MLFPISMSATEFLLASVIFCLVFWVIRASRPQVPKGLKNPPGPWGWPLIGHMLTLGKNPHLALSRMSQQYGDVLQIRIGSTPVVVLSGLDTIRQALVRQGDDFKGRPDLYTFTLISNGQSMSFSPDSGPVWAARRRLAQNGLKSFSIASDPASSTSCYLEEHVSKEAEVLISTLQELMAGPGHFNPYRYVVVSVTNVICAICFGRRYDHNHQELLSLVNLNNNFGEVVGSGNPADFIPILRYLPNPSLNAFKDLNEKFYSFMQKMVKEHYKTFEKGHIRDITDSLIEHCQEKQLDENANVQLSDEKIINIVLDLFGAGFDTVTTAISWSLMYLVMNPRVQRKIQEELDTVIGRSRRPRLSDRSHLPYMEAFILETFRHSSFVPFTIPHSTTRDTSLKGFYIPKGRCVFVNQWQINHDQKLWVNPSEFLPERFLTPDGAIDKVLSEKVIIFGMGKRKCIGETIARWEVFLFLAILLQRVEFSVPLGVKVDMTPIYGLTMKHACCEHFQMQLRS
assay-protocol: Recombinant CYP1A1 Supersomes EROD activity
endpoint: IC50 (nM)
Please state the figure in nM; there is no need to write the unit.

What does the record list as IC50 for CC1=C(CC(=O)Oc2ccc(-c3cc(=S)ss3)cc2)c2cc(F)ccc2/C1=C\c1ccc([S+](C)[O-])cc1 (stereo not shown) ?
40

* * *

Tested on: CYP1A1, CYP1A2, CYP1B1 (EROD activity)
assay-protocol: EROD activity in intact HepG2 cells
Format: cell-based, human
test-settings: 50 μM compound + 250 pmol TCDD, 24 hours
endpoint: inhibition of TCDD (PAH)-induced EROD activity

1. [Na+].[SH-] ... not inhibited
2. CC1=C(CC(=O)Oc2ccc(-c3cc(=S)ss3)cc2)c2cc(F)ccc2/C1=C\c1ccc([S+](C)[O-])cc1 (centres unmarked) ... inhibited
3. O=C(O)Cc1ccccc1Nc1c(Cl)cccc1Cl ... not inhibited
4. O=C(Cc1ccccc1Nc1c(Cl)cccc1Cl)Oc1ccc(-c2cc(=S)ss2)cc1 ... inhibited

What does the record list as inhibition of TCDD (PAH)-induced EROD activity for CC1=C(CC(=O)O)c2cc(F)ccc2/C1=C\c1ccc([S+](C)[O-])cc1 (centres unmarked) ?
not inhibited
